Ref: ChEMBL document CHEMBL5634123

Test system: MDA-MB-468
protocol-summary: cells
experimental-parameters: Homo sapiens, MDA-MB-468, 24 h
attribute-measured: IC50

{"mol-smiles": "Cn1c([C@@H](Cc2ccccc2)NCc2ccccc2)nc2cc(C(=O)NO)ccc21", "obs-value": "> 50 µM"}
{"mol-smiles": "CCN(Cc1nc2cc(C(=O)NO)ccc2n1C)c1ccccc1", "obs-value": "> 50 µM"}

Now consider a different compound.
Look at this compound and give its reported IC50. Cc1cccc(NCc2nc3cc(C(=O)NO)ccc3n2C)c1
> 50 µM
